Parameter: z-score. Scope: all listed entries.
- procedure details: MELAS cybrid and Rieske KO viability enhancers – cell-based, MELAS cybrids, Rieske KO mouse fibroblasts, CellTiter-Glo, primary screen (AID 1508586);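 also: test concentration not given here; z relative to plate mean and SD of compound and empty wells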
- particulars: MELAS cybrid survival, low glucose, CellTiter-Glo 48 h; stronger effect = higher value
Number only, please.

As a guide, the following entries are already answered.
> print(dat)
                                   compound  experimental.value
1              CCCCCCCCCCCCCCCC(=O)NCC(=O)O             -0.0953
2  COC(=O)NC(C(=O)NC(Cc1ccccc1)C(O)CN(Cc1ccc(-c2ccccn2)cc1)NC(=O)C(NC(=O)OC)C(C)(C)C)C(C)(C)C (stereo not given)              -0.349
3  CC(C)CCN1c2nc(Nc3cc(F)c(O)c(F)c3)ncc2N(C)C(=O)C1C (stereo not given)              0.0608
4              NCC(=O)Nc1ccc(OCc2ccccc2)cc1                1.42

What value of z-score has been recorded for this entry: FC(F)(F)c1ccc(C=Cc2nc(COc3ccc(CCCCn4ccnn4)cc3)co2)cc1
-0.189

Fill in: z-score of COc1ccc2nc(Cn3cnc4cc(F)ccc4c3=O)[nH]c2c1 is ___
-0.0496

Query (compound): COc1ccccc1C(=O)N1CCN2C(=O)[C@@H]3CSCN3C(=O)[C@H]2C1 ; field requested: z-score
-0.216

What value of z-score has been reported for the following compound? COc1cccc(COC2CN(Cc3ccccn3)C(=O)CN(C(=O)c3ccc(C)s3)C2)c1 (stereo not given)
-0.406

Give its z-score value. Item: CC(O)c1cn(C2CCN(c3ncnc4nc[nH]c34)CC2)nn1 (stereo not given)
0.294

What value of z-score has been recorded for this entry: Cc1nc(-c2ccnc(N)n2)cn1Cc1c(Cl)cccc1Cl
-0.789
